- Test system: Rad30
- Test Description: Yeast two hybrid (Y2H) analysis of PCNA-partner interaction
- Type: binding
- Stated Conditions: YRG2 strain, growth on selective agar plates lacking histidine; growth similar to WT PCNA denoted as 1
Measured Binding of PCNA Mutants to Target Partners: Rad30 (Y2H) by item
Value Kind: Binding of PCNA Mutants to Target Partners: Rad30 (Y2H)

[
  {
    "Molecule": "pol30-Pol32E5: PCNA mutant evolved for Pol32, IDCL sequence DADNDFLKISEL (protein, left off: Gal4 activation domain, end not stated, kept) MLEAKFEEASLFKRIIDGFKDCVQLVNFQCKEDGIIAQAVDDSRVLLVSLEIGVEAFQEYRCDHPVTLGMDLTSLSKILRCGNNTDTLTLIADNTPDSIILLFEDTKKDRIAEYSLKLMDADNDFLKISELQYDSTLSLPSSEFSKIVRDLSQLSDSINIMITKETIKFVADGDIGSGSVIIKPFVDMEHPETSIKLEMDQPVDLTFGAKYLLDIIKGSSLSDRVGIRLSSEAPALFQFDLKSGFLQFFLAPKFNDEE",
    "Test Result": 1
  },
  {
    "Molecule": "pol30-Msh6E6: PCNA mutant evolved for Msh6, IDCL sequence DYDKDLLKIIEL (protein, left off: Gal4 activation domain, end not stated, kept) MLEAKFEEASLFKRIIDGFKDCVQLVNFQCKEDGIIAQAVDDSRVLLVSLEIGVEAFQEYRCDHPVTLGMDLTSLSKILRCGNNTDTLTLIADNTPDSIILLFEDTKKDRIAEYSLKLMDYDKDLLKIIELQYDSTLSLPSSEFSKIVRDLSQLSDSINIMITKETIKFVADGDIGSGSVIIKPFVDMEHPETSIKLEMDQPVDLTFGAKYLLDIIKGSSLSDRVGIRLSSEAPALFQFDLKSGFLQFFLAPKFNDEE",
    "Test Result": 1
  }
]
